Molecular target: Liver carboxylesterase (Sus scrofa, UniProt Q29550)
Sequence (Q29550 whole entry): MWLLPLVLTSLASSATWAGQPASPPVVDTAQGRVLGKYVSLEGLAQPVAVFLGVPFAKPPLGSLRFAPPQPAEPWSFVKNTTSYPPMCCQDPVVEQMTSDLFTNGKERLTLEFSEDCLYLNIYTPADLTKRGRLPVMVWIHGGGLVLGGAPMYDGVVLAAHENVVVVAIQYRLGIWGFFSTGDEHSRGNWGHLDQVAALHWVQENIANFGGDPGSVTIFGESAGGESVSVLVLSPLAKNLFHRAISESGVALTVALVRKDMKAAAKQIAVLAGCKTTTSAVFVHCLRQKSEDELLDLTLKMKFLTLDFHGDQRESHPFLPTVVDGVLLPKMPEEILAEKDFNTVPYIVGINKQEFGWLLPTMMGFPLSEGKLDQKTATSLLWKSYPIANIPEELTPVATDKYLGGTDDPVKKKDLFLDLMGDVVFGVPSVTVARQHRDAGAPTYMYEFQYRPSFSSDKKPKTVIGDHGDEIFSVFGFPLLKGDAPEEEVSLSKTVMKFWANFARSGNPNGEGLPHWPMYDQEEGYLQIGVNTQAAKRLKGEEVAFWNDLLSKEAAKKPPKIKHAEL
pIC50: −log10 of the molar value.
Use 4 as the dividing line for pIC50, with the line itself on the True side and lower values as False.

Some solved entries appear below for comparison.
compound=CCCCCCCCC(=O)C(F)F target_or_test_system="Liver carboxylesterase (Sus scrofa, UniProt Q29550)" assigned_category=True
compound=CCCCCC[Se]CC(C)=O target_or_test_system="Liver carboxylesterase (Sus scrofa, UniProt Q29550)" assigned_category=False
compound="CCCCCC[Se](=O)CC(C)=O (configuration not stated)" target_or_test_system="Liver carboxylesterase (Sus scrofa, UniProt Q29550)" assigned_category=True
compound=CCCCCC[Se](=O)(=O)CC(=O)C(F)(F)F target_or_test_system="Liver carboxylesterase (Sus scrofa, UniProt Q29550)" assigned_category=True
compound=CCCCCC[Se]CC(=O)C(F)(F)F target_or_test_system="Liver carboxylesterase (Sus scrofa, UniProt Q29550)" assigned_category=True

Item CCCCCC[S+]([O-])CC(=O)C(F)(F)F (configuration not stated) with pIC50 of 4 or above?
True

Tell me whether pIC50 is at least 4 here: CCCCCC[Se](=O)CC(=O)C(F)(F)F (configuration not stated)
True

Has CCCCCCCCC(C)=O a recorded pIC50 greater than or equal to 4?
False

Quick check: does CCCCCCSCC(C)=O have pIC50 greater than or equal to 4?
False

Threshold query (pIC50 >= 4) on CCCCCCOCC(C)=O
False

# check: pIC50 of CCCCCCCCC(=O)CF is greater than or equal to 4
False

Can CCCCCCOCC(=O)C(F)(F)F be said to have pIC50 at or above 4?
True
